Entry source: PubChem BioAssay AID1645864

tgt: Ubiquitin carboxyl-terminal hydrolase 17-like protein 5 (Homo sapiens) (UniProt A8MUK1)
Sequence (A8MUK1 whole entry, looked up): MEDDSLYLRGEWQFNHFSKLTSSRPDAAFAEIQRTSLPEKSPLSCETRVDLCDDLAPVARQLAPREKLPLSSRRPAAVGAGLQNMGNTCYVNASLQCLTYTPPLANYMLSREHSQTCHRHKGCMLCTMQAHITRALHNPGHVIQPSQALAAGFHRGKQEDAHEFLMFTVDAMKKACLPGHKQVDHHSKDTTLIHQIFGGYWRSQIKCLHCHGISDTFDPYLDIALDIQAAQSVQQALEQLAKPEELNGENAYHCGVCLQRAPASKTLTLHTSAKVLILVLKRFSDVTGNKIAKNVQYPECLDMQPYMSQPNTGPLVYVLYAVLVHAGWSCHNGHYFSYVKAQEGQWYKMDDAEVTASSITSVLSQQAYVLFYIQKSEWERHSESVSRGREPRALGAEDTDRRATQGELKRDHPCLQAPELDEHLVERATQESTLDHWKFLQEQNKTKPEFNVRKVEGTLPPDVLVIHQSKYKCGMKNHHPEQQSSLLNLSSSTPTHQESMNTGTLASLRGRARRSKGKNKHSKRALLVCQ
assayName: ubiquitin-specific protease 17 DUB inhibitors, concentration-effect assay, cell-free, verification of initial screening actives (AID 1645864)
conditionSet: purified USP17, ubiquitin-rhodamine cleavage fluorescence, 3 h
Activity calls are given as the source filed them.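 How the source made its calls: active means maximal inhibition of USP17 at or above 30% in the confirmation dose-response, a value not among the printed readouts; inactive means the rest.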
propertyLabel: IC50

compound	propertyLabel	result
CN(C(=O)c1cccc2cccnc12)c1nc2c(s1)CCc1occc1-2	IC50	24.9 µM
O=C(COC(=O)c1cc(Cl)ccc1O)Nc1ccc2c(c1)OCCO2	IC50	29.2 µM
Nc1c(C(=O)Nc2ccc3c(c2)OCO3)sc2nc(-c3cccnc3)ccc12	IC50	1.64 µM
COc1ccc(C)cc1NC(=O)CSc1nc(C)nc2c1oc1ccccc12	IC50	22.3 µM
O=C(CN1C(=O)C2CCCC2=Nc2ccccc21)Nc1cc(F)ccc1F (stereo not given)	IC50	13.9 µM
Cn1ccc2c(cc(C(=O)NCCC3=CCCCC3)n2C)c1=O	IC50	> 50 µM (inactive)
CN(C)S(=O)(=O)N1CCCC2(C1)Nc1cccnc1NC2=NC1CCCC1 (stereo not given)	IC50	> 50 µM (inactive)
O=C(NCCN1CCCC1)C1CCN(c2cnc(N3CCCCC3)nc2)CC1	IC50	> 50 µM (inactive)
Cc1cccc(CNC(=O)C2CCCN(S(=O)(=O)Cc3ccc(F)cc3)C2)c1 (stereo not given)	IC50	19.1 µM
COc1ccc(-n2nnc3c(SCC(=O)Nc4cc(C)on4)ncnc32)cc1	IC50	> 50 µM (inactive)
CN1CCN(C(=O)c2ccn(-c3ccc4ccc(-c5cnn(C)c5)cn34)n2)CC1	IC50	> 50 µM (inactive)
COc1ccc(Nc2nc3c(S(=O)(=O)c4ccc(C)cc4)nnn3c3ccsc23)c(OC)c1	IC50	2.62 µM
Cc1cc(=O)n(CC(=O)Nc2ccccc2C)c(Nc2ccc(F)cc2)n1	IC50	26.8 µM
O=C(Cc1cc(-c2ccc(F)cc2)on1)NCc1ccccc1	IC50	15.9 µM
O=C(CNC(=O)c1cccc(F)c1)Nc1nc2ccccc2[nH]1	IC50	19.2 µM

###

Examples of compounds with documented IC50 follow.
tgt: Ubiquitin carboxyl-terminal hydrolase 17-like protein 5 (Homo sapiens)
assayName: ubiquitin-specific protease 17 DUB inhibitors, concentration-effect assay, cell-free, verification of initial screening actives (AID 1645864)
conditionSet: purified USP17, ubiquitin-rhodamine cleavage fluorescence, 3 h
Calls of active or inactive are those of the source.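 How the source made its calls: active means maximal inhibition of USP17 at or above 30% in the confirmation dose-response, a value not among the printed readouts; inactive means the rest.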
propertyLabel: IC50

smilesStructure	propertyLabel	result
Cc1c(-c2nc(-c3ccccc3Cl)no2)nnn1-c1cccc(F)c1	IC50	6.66 µM
O=C(COc1cccc2c1CCN(Cc1cccnc1)C2=O)Nc1ccc2c(c1)OCCO2	IC50	35.2 µM
COc1ccc(-c2cc3nc(C)cc(Nc4ccc(F)cc4)n3n2)cc1OC	IC50	> 50 µM (inactive)
CC[C@H](C)C[C@H]1CC[C@](O)([C@](C)(O)C(=O)N[C@@H]2C(=O)N3NCCC[C@@H]3C(=O)N(O)[C@@H](C)C(=O)NCC(=O)N3NCCC[C@H]3C(=O)N(O)[C@H](C)C(=O)O[C@H]2C(C)C)O[C@@H]1C	IC50	13.6 µM

###

tgt: Ubiquitin carboxyl-terminal hydrolase 17-like protein 5 (Homo sapiens)
assayName: ubiquitin-specific protease 17 DUB inhibitors, concentration-effect assay, cell-free, verification of initial screening actives (AID 1645864)
conditionSet: purified USP17, ubiquitin-rhodamine cleavage fluorescence, 3 h
Activity calls are given as the source filed them.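 The calls were made as follows: active = maximal inhibition of USP17 at or above 30% in the confirmation dose-response, a value not among the printed readouts; inactive = the rest.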
Outcome codes: active, inactive

molecule	tgt	labelClass
O=C(Nc1ccccc1)c1nc2c(s1)CCN(C(=O)c1ccccc1)CC2	Ubiquitin carboxyl-terminal hydrolase 17-like protein 5 (Homo sapiens)	inactive
O=C(C1CCCN(S(=O)(=O)N2CCCCCC2)C1)N1CCN(c2ccccc2)CC1 (stereo not drawn)	Ubiquitin carboxyl-terminal hydrolase 17-like protein 5 (Homo sapiens)	inactive
Cc1ccc(CNC(=O)c2cnc3ccccc3n2)cc1	Ubiquitin carboxyl-terminal hydrolase 17-like protein 5 (Homo sapiens)	inactive
O=C(Cn1ncc2c(N3CCCCCC3)ncnc21)NCc1ccccc1	Ubiquitin carboxyl-terminal hydrolase 17-like protein 5 (Homo sapiens)	inactive
CN1C(=O)[C@]23CC4=CC=C[C@H](O)[C@H]4N2C(=O)[C@@]1(CO)SS3	Ubiquitin carboxyl-terminal hydrolase 17-like protein 5 (Homo sapiens)	inactive
CC(C(=O)NCc1ccc2c(c1)OCO2)N1CCN(c2ccc(O)cc2)CC1 (stereo not drawn)	Ubiquitin carboxyl-terminal hydrolase 17-like protein 5 (Homo sapiens)	active
COc1ccc(Cn2c(=O)[nH]c3cc(C(=O)NCCCN4CCN(c5cccc(Cl)c5)CC4)ccc3c2=O)cc1	Ubiquitin carboxyl-terminal hydrolase 17-like protein 5 (Homo sapiens)	active
Cc1nc2cc(C(=O)NCCC3=CCCCC3)ccc2n1-c1cccc(F)c1	Ubiquitin carboxyl-terminal hydrolase 17-like protein 5 (Homo sapiens)	inactive
Cn1c(=O)[nH]c(=O)c2c1nc1n(CCc3ccccc3)c(-c3ccccc3)cn21	Ubiquitin carboxyl-terminal hydrolase 17-like protein 5 (Homo sapiens)	active
CCOC(=O)c1ccc(-n2c(=O)c(C#N)cc3c(=O)n4ccccc4nc32)cc1	Ubiquitin carboxyl-terminal hydrolase 17-like protein 5 (Homo sapiens)	inactive
CCn1c(=O)c(=O)[nH]c2cc(C(=O)Nc3cccc(-c4csc(C)n4)c3)ccc21	Ubiquitin carboxyl-terminal hydrolase 17-like protein 5 (Homo sapiens)	active
O=C(COc1ncnc2ccccc12)Nc1ccc2c(c1)OC1(CCCC1)O2	Ubiquitin carboxyl-terminal hydrolase 17-like protein 5 (Homo sapiens)	active
Cc1ccc(Cl)cc1NC(=O)c1cc(-c2ccccn2)n[nH]1	Ubiquitin carboxyl-terminal hydrolase 17-like protein 5 (Homo sapiens)	active
COc1ccc(CCN2COc3c(cc(Cl)c4cccnc34)C2)cc1OC	Ubiquitin carboxyl-terminal hydrolase 17-like protein 5 (Homo sapiens)	active
COc1ccc(-c2nc3n(n2)C(c2cccc(O)c2)C2=C(CCCC2=O)N3)cc1 (stereo not drawn)	Ubiquitin carboxyl-terminal hydrolase 17-like protein 5 (Homo sapiens)	active
COCCn1c(=O)[nH]c2cc(C(=O)NCCNc3ccc([N+](=O)[O-])cc3C#N)ccc2c1=O	Ubiquitin carboxyl-terminal hydrolase 17-like protein 5 (Homo sapiens)	active
COc1ccc(C)cc1NC(=O)C1CC(=O)Nc2nc3ccccc3n21 (stereo not drawn)	Ubiquitin carboxyl-terminal hydrolase 17-like protein 5 (Homo sapiens)	active
Cc1nnc(NC(=O)C2CCN(c3ccc(S(N)(=O)=O)cc3[N+](=O)[O-])CC2)o1	Ubiquitin carboxyl-terminal hydrolase 17-like protein 5 (Homo sapiens)	active
Cc1c(-c2nn3c(-c4ccco4)nnc3s2)cccc1[N+](=O)[O-]	Ubiquitin carboxyl-terminal hydrolase 17-like protein 5 (Homo sapiens)	active
Cc1ccc2c(c1)c(=O)c(C(=O)c1ccccc1)cn2CC(=O)Nc1ccccc1	Ubiquitin carboxyl-terminal hydrolase 17-like protein 5 (Homo sapiens)	active
CC1CCc2c(sc3ncnc(OCc4cccc([N+](=O)[O-])c4)c23)C1 (stereo not drawn)	Ubiquitin carboxyl-terminal hydrolase 17-like protein 5 (Homo sapiens)	inactive
Cc1ccccc1NC(=O)c1ccn(COc2ccc(Cl)cc2)n1	Ubiquitin carboxyl-terminal hydrolase 17-like protein 5 (Homo sapiens)	inactive
COc1ccc(-c2cc(-c3ccccc3)nc(SCC(N)=O)c2C#N)cc1OC	Ubiquitin carboxyl-terminal hydrolase 17-like protein 5 (Homo sapiens)	active
Cc1ccc(Nc2nc(Nc3cccc(Cl)c3)nc3nccnc23)cc1	Ubiquitin carboxyl-terminal hydrolase 17-like protein 5 (Homo sapiens)	inactive
CC1=C(c2ccc(F)cc2)S(=O)(=O)NC1=NCC(=O)Nc1cccc(F)c1	Ubiquitin carboxyl-terminal hydrolase 17-like protein 5 (Homo sapiens)	active
Nc1ccccc1SCc1noc(-c2cccs2)n1	Ubiquitin carboxyl-terminal hydrolase 17-like protein 5 (Homo sapiens)	inactive
Cc1ccc2c(C)nc(Nc3ncc4c(n3)CC(c3ccco3)CC4=O)nc2c1 (stereo not drawn)	Ubiquitin carboxyl-terminal hydrolase 17-like protein 5 (Homo sapiens)	active
COC(=O)c1cc(C#N)c(NCc2ccccc2)nc1C	Ubiquitin carboxyl-terminal hydrolase 17-like protein 5 (Homo sapiens)	active
Cc1nc(Nc2c3ccccc3nc3ccccc23)sc1C	Ubiquitin carboxyl-terminal hydrolase 17-like protein 5 (Homo sapiens)	inactive
COc1cc(O)c2c(=O)c(-c3ccc(O)cc3)coc2c1	Ubiquitin carboxyl-terminal hydrolase 17-like protein 5 (Homo sapiens)	active
COc1cccc2cccc(O)c12	Ubiquitin carboxyl-terminal hydrolase 17-like protein 5 (Homo sapiens)	inactive
Nc1nc(OCc2ccccc2)c2[nH]c(/C=C/c3cccs3)nc2n1	Ubiquitin carboxyl-terminal hydrolase 17-like protein 5 (Homo sapiens)	active
O=C(CCCCn1c(=O)c2ccccc2n(Cc2ccccc2F)c1=O)NCCc1ccccc1	Ubiquitin carboxyl-terminal hydrolase 17-like protein 5 (Homo sapiens)	active
Cc1cccc(S(=O)(=O)N2CCc3nc4ccccc4n3CC2)c1	Ubiquitin carboxyl-terminal hydrolase 17-like protein 5 (Homo sapiens)	active
O=C(Cc1cc(-c2ccccc2)on1)NCc1c(F)cccc1F	Ubiquitin carboxyl-terminal hydrolase 17-like protein 5 (Homo sapiens)	active
Cn1c(COc2ccccc2)nnc1SCC(=O)Nc1ccc(N2CCOCC2)cc1	Ubiquitin carboxyl-terminal hydrolase 17-like protein 5 (Homo sapiens)	active
Cc1c(-c2ccccc2)oc2c(C(=O)OCC(=O)Nc3ccccc3F)cccc2c1=O	Ubiquitin carboxyl-terminal hydrolase 17-like protein 5 (Homo sapiens)	inactive
CC1=C(Cn2c3cccc(=O)c-3nc3ccccc32)CCC(C)(C)C1	Ubiquitin carboxyl-terminal hydrolase 17-like protein 5 (Homo sapiens)	active
